In this section, each of the sequences is paired with its reported apparent Kd.
- Test system: MS2 coat protein
- protocol.details: apparent Kd, MS2 coat protein; higher = weaker binding; RNA-MaP array; theophylline 2 mM where present
- condition.info: designed as: ON switch for theophylline; no ligand
reported.metric: apparent Kd (nM)

1) AAUAACAUGAGGAUCACCCAUGUAAAAGAUACCAGAGUGAUGAUCCUCCCUUGGCAGCUUAAAACGCUAUUGAUUACAAUAGCGA	54.9
2) GGGCCUGUAAGCAGACCCACAGCGGGUGAUACCAGCAAUAAAACUUGCCCUUGGCAGCACACAGCUACAUGAGGAUCACCCAUGU	43.2
3) GAUCCUCAUACGGAUACCAGCGAAUAACAUGAGGAUCACCCAUGUAAUAAAGAAAAUAAAUGCCCUUGGCAGCCGAAUAGAUAGU	166
4) ACAAGUCCUCAUGAUACCAGCGAUGAGACAUAGUCUCAACAUGAGGAUCACCCAUGUAUUCGCCCUUGGCAGCAUACGGUUUUUG	301
5) AAUAUAAGUGUAAUUAUAUUUAUAUCUGAUACCAGACUCUCAUGUGUCCCUUGGCAGCAGUUACAUGAGGAUCACCCAUGUAUUA	76
6) UAAAACAUGAGGAUCACCCAUGUAUUUGAUACCAGAGUGAUGAUCCUCCCUUGGCAGCAAAUAACGCAUUGAUUACAAUGCGAAA	42.8
7) UGUAUGUGAUUUGAUACCAGACCAACUGGUAAAACAUGAGGAUCACCCAUGUAAACUUGGGUCCCUUGGCAGCAAAUCGCAUACU	80.5
8) UGAGAUCCUCAUGAUACCAGUGUACUACAUGAGGAUCACCCAUGUAGCAACAUCUGUAGACACCCUUGGCAGCAUGAGACCACGU	18.3
9) CAUGUUGUUGAAGAUACCAGAUUCUGAACGUUCACAUGAGGAUCACCCAUGUAAGUCCGAGUCCCUUGGCAGCUUAUACAGGUGG	53
10) UUCUACAUGAGGAUCACCCAUGUGGGUGAUACCAGCACUUUUUGGUGCCCUUGGCAGCACAUGAGAAUACCGUACGAUCGGUGAU	376

###

In this section, each of the sequences is paired with its reported apparent Kd.
- System: MS2 coat protein
- protocol.details: apparent Kd, MS2 coat protein; higher = weaker binding; RNA-MaP array
- condition.info: ligand present: flavin mononucleotide; designed as: ON switch for flavin mononucleotide
reported.metric: apparent Kd (nM)

1. GGUUCGCAUGUAGGAUAUCGCAAUAUAAACAUGAGGAUCACCCAUGUAACAAUGUAAACGGACAACGAGAAGGACAUCAACUCC	22.8
2. AUGCCACUUAAGAAGGCGGCGUGAUGCUUAGCGUUGAGACAUGAGGAUCACCCAUGUGACGUACCCGAGGAUAUUAAUGGAAUC	11.7
3. AACAUGUCUCAAGGAUAUAAAACGCUAAAUGGCUUAGAAGGUGAGGCCGCUGUGAGGAUCCCUGACAUGAGGAUCACCCAUGUC	9.76
4. CUUGGCGCUCAGAAGGCCGUCCAUGCACGCGCUAGGACAUGAGGAUCACCCAUGUAUCUAUGGACGGAGGAUAUGAUUCUCUCG	8.75
5. ACAAUCACAUGAGGAUCACCCAUGUUAGACAGGGUCAAUGUGAAGGAUAUGAACAAUGAAAAUACUCAGAAGGUCAUAUUGAAA	27.4
6. AAGGUGCACGCUCAGGAUAUAUUCCAGGUUACAUGAGGAUCACCCAUGUAGGGUUGAAGAAGGACAUAGAAGGGAGCCUACUUGGC	21.6
7. CGUGGCAAUCAAGGAUAUCACUUCUAGAUACCGUGAGAAGGUGAGCGUCUCUGCAAAGAGCGGGACAUGAGGAUCACCCAUGUA	162
8. AGAAUAUGAAUAGGAUAUCUGCGUAAUGAUAAAAGAGAAGGAAUUAGAAGUAUUACAUGAGGAUCACCCAUGUUUGAUAAGAAA	8.77
9. CAGUUACAUGAGGAUCACCCAUGUUUUUAACGCAGAGGAUAUCCGGUGGUUAAUGGCUCAGGAGAAGGCUGUGGUC	9.37
10. AUCUCUGACUAAGGAUAUGCGGCAAAGAGCCUCUCAGAAAACAUGAGGAUCACCCAUGUAUGGACGCAGAAGGUAGUAGCCCAC	21.4
11. UAACCACAUGAGGAUCACCCAUGUCCCACAUUCGCAGGAUAUGGGUCACUGAGGUCACUACCAGAAGGGCGGAUGC	178
12. GGAUAAACUCAGAAGGAACGGCUCAAGUAAUAGUAAGGAUAUGACUGUAGGACUACAUGAGGAUCACCCAUGUUGAUGAAACAG	7.91
13. GCGUUUGCCAAAGGAUAUCAACAUGUGUUGCUUGCAUUCCUAUACAUGAGGAUCACCCAUGUGGCUGAGAAGGUUGAACACUGG	14.1
14. AAGCUACAUGAGGAUCACCCAUGUCUCACGUCACUAGGAUAUCUGAAGGUGACGAAGUUCAGAGAAGGAGUGCAUC	83.2
15. CAUUCACUAACUCCACAUGAGGAUCACCCAUGUUGAGGUCCGAGAAGGUGCACUACGUGGGAGCGCAAGGAUAUCGCCUAGUAA	7.64
16. CACGGCAUUGAGAAGGGAGUGACAUGGAACUGCUCAGGAUAUCAACACACAUUGUUAAAGAAAACAUGAGGAUCACCCAUGUUC	9.28
17. GUCUGAUGACAUGAGGAUCACCCAUGUUGUAGGGUUACCUUCAGAAGGGCGAACUCGUAUAGAGCGCAGGAUAUGAAUCAAAGA	11.9
18. UCGGUUCGCGGAGGAUAUACUUCACUUCAGGAAGUAGAAGGCCGGCGGUGCUAAGGGUCACAUGAGGAUCACCCAUGUCUUCAC	20.7
19. CGCUCGCGGCGGAAGGAUAUGUCUAUCCGGACAUGAGGAUCACCCAUGUAUGGGUACUUGCUGCAACAGAAGGUCCGUAUUAUAUG	120
20. CUUUUACAUGAGGAUCACCCAUGUUGUACAGGGUUAGGAUAUCUUAAUGUUAAGUUAAUGAGAGAAGGAACAGUCA	94.8

Data origin: the EternaBench riboswitch data
